Source: patent US9446047B2

- testName: Rat pharmacokinetics, intravenous bolus and oral gavage
- Type: in vivo, male Sprague Dawley rats
- cond: male, Sprague Dawley, plasma, PO 10 mg/kg vs IV 2 mg/kg, AUCinf and nominal doses used, read-out: F (bioavailability)
reportedProperty: bioavailability (%)
Report as a plain number; the unit % is understood.

Noted for COc1cc2c(cc1N1CCOCC1)CC(Cc1cccc(OC(F)(F)F)c1)C2=O (stereo not shown) : its bioavailability reads 19

###

- testName: Rat pharmacokinetics, intravenous bolus and oral gavage
- Assay type: in vivo, male Sprague Dawley rats
- cond: plasma, IV 2 mg/kg, solution, male Sprague Dawley rats, mean±SD n=3
reportedProperty: clearance (mL/min/kg)
Report as a plain number; the unit mL/min/kg is understood.

Noted for COc1cc2c(cc1N1CCOCC1)CC(Cc1cccc(OC(F)(F)F)c1)C2=O (stereo not shown) [compound 31] : its clearance reads 57

###

- testName: Rat pharmacokinetics, intravenous bolus and oral gavage
- Type: in vivo, male Sprague Dawley rats
- cond: plasma, PO 10 mg/kg, solution, male Sprague Dawley rats, mean±SD n=3
reportedProperty: Cmax (ng/mL)
Report as a plain number; the unit ng/mL is understood.

Noted for COc1cc2c(cc1N1CCOCC1)CC(Cc1cccc(OC(F)(F)F)c1)C2=O (stereo not shown) : its Cmax reads 176

###

- testTarget: RORγt (Homo sapiens)
- Construct: host or cells: IL-17A Prom/LUCPorter HEK 293 cell line (IMGENEX, IML-301)
- Sequence (P51449 1-497 isoform P51449-2): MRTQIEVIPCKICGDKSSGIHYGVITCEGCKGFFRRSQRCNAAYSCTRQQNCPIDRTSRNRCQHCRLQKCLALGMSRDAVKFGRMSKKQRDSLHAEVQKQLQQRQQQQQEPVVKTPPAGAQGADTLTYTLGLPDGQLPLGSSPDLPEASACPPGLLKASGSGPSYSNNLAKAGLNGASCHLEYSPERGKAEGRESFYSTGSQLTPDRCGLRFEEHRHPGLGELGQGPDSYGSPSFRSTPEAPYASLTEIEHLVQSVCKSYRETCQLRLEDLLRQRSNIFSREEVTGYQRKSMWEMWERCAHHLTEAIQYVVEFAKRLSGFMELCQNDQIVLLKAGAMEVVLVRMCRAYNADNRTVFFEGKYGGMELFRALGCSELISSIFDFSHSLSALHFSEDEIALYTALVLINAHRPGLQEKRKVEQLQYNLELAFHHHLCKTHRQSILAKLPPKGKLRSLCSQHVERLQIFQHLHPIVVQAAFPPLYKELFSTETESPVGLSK
- testName: RORγt-activated IL-17A Prom/LUCPorter HEK 293 cells luciferase reporter assay
- Assay type: cell-based
- cond: IL-17A Prom/LUCPorter HEK 293 cells transfected with RORγt, 16 h; read-out: RORγt Cell Specific
reportedProperty: IC50

The examples below pair each entry with its known result.
Noted for COc1cc2c(cc1N1CCN(C)CC1)CC(Cc1ncccc1C(F)(F)F)C2=O (centres unmarked) [compound 113] : its IC50 reads < 500 nM

Noted for COc1cc2c(cc1N1CCOCC1)CC(Cc1sc(N3CCOCC3)nc1Cl)C2=O (centres unmarked) [compound 47] : its IC50 reads > 1000 nM

Noted for COc1cc2c(cc1N1CCN(C)CC1)CC(Cc1cc(C(F)(F)F)cc(C(O)(C(F)(F)F)C(F)(F)F)c1)C2=O (centres unmarked) [compound 240] : its IC50 reads < 500 nM

Next:
Noted for COc1cc2c(cc1N1CCOCC1)CC(Cc1ccc(C(F)(F)F)c(Cl)c1)C2=O (centres unmarked) [compound 92] : its IC50 reads > 1000 nM
